MIC reference
Test system: Klebsiella pneumoniae
experiment.notes: Antimicrobial activity against Klebsiella pneumoniae NCTC 13438 by broth microdilution method
Format: functional
measured.metric: MIC

1. CO/N=C(\C(=O)N[C@@H]1C(=O)N2C(C(=O)O)=C(CSc3nc(=O)c(O)nn3C)CS[C@H]12)c1csc(N)n1	> 64 µg/mL
2. C[C@H](NC(=O)[C@@H](NC(=O)[C@@H](N)CCCCN)[C@@H](O)CN)C(=O)NCC(=O)N[C@H](CCCN)C(=O)N1CCC[C@H]1C(=O)N[C@@H](Cc1cnc[nH]1)C(=O)N[C@@H](CCCCN)C(=O)N/C(=C\CCNC(=N)N)C(=O)O	8 µg/mL
3. C[C@@H](O)[C@H]1C(=O)N2C(C(=O)O)=C(SCCNC=N)C[C@H]12 [IMIPENEM ANHYDROUS]	> 64 µg/mL

====

# maps each entry to its MIC
Test system: Escherichia coli
experiment.notes: Antimicrobial activity against Escherichia coli ATCC BAA-2452 by broth microdilution method
Format: functional
Positions of bridges follow the written chain, without caps; N, C: chain ends. Non-standard residues stand in square brackets, D forms with d. Residues, ends and D or L forms follow the SMILES beside them. *: point of attachment. X1 = CC[C@H](C)CCCCC(=O)*; Dab = NCC[C@H](N)C(=O)O
measured.metric: MIC (µg/mL)

1. C[C@H](NC(=O)[C@@H](NC(=O)[C@@H](N)CCCCN)[C@@H](O)CN)C(=O)NCC(=O)N[C@H](CCCN)C(=O)N1CCC[C@H]1C(=O)N[C@@H](Cc1cnc[nH]1)C(=O)N[C@@H](CCCCN)C(=O)N/C(=C\CCNC(=N)N)C(=O)O	16
2. N=C(N)NCC/C=C(\NC(=O)[C@H](CCCCN)NC(=O)[C@H](Cc1cnc[nH]1)NC(=O)[C@@H]1CCCN1C(=O)[C@@H](CCCN)NC(=O)CNC(=O)[C@@H](NC(=O)[C@@H](NC(=O)[C@@H](N)CCCCN)[C@@H](O)CN)[C@@H](O)CN)C(=O)N[C@@H](CCCCN)C(=O)NCCCCN	8
3. CC[C@H](C)CCCCC(=O)N[C@@H](CCN)C(=O)N[C@H](C(=O)N[C@@H](CCN)C(=O)N[C@H]1CCNC(=O)[C@H]([C@@H](C)O)NC(=O)[C@H](CCN)NC(=O)[C@H](CCN)NC(=O)[C@H](CC(C)C)NC(=O)[C@@H](Cc2ccccc2)NC(=O)[C@H](CCN)NC1=O)[C@@H](C)O (X1-[Dab]T[Dab][Dab][Dab][dF]L[Dab][Dab]T; lactam 4-C)	0.5

====

In this section, each of the compounds is paired with its reported MIC.
Test system: Escherichia coli
experiment.notes: Antimicrobial activity against Escherichia coli ATCC BAA-2340 by broth microdilution method
Assay type: functional
Positions of bridges follow the written chain, without caps; N, C: chain ends. Non-standard residues stand in square brackets, D forms with d. Residues, ends and D or L forms follow the SMILES beside them. *: point of attachment. X1 = CC[C@H](C)CCCCC(=O)*; Dab = NCC[C@H](N)C(=O)O
measured.metric: MIC

1. CC[C@H](C)CCCCC(=O)N[C@@H](CCN)C(=O)N[C@H](C(=O)N[C@@H](CCN)C(=O)N[C@H]1CCNC(=O)[C@H]([C@@H](C)O)NC(=O)[C@H](CCN)NC(=O)[C@H](CCN)NC(=O)[C@H](CC(C)C)NC(=O)[C@@H](Cc2ccccc2)NC(=O)[C@H](CCN)NC1=O)[C@@H](C)O (X1-[Dab]T[Dab][Dab][Dab][dF]L[Dab][Dab]T; lactam 4-C)	0.5 µg/mL
2. C[C@@H](O)[C@H]1C(=O)N2C(C(=O)O)=C(SCCNC=N)C[C@H]12 [IMIPENEM ANHYDROUS]	32 µg/mL

These data points were gathered from ChEMBL document CHEMBL4145683.
